Test system: ZR-75-1
Assay: viability inhibition at highest dose (% inhibition); higher = more growth inhibition
Settings: 4-OH-tamoxifen in medium 1 µM; 72 h
Using viability inhibition at highest dose as the sorting value, the categories are 0 (below -2), 1 (-2 to below 9), 2 (9 or more)

Consider the following illustrative entries.
{"MOLECULE": "NC(=O)NO [Hydroxyurea] (drug 100000 nM)", "TARGET SYSTEM": "ZR-75-1", "LABEL CLASS": 1}
{"MOLECULE": "O=C(c1cc(Cc2n[nH]c(=O)c3ccccc23)ccc1F)N1CCN(C(=O)C2CC2)CC1 [Olaparib] (drug 10000 nM)", "TARGET SYSTEM": "ZR-75-1", "LABEL CLASS": 0}
{"MOLECULE": "Cc1c(N)nc([C@H](CC(N)=O)NC[C@H](N)C(N)=O)nc1C(=O)N[C@H](C(=O)N[C@H](C)[C@@H](O)[C@H](C)C(=O)N[C@H](C(=O)NCCc1nc(-c2nc(C(=O)NCCC[S+](C)C)cs2)cs1)[C@@H](C)O)[C@@H](OC1OC(CO)C(O)C(O)C1OC1OC(CO)C(O)C(OC(N)=O)C1O)c1cnc[nH]1 (stereo partly drawn) [Bleomycin] (drug 10000 nM)", "TARGET SYSTEM": "ZR-75-1", "LABEL CLASS": 2}
{"MOLECULE": "CN(C)C[C@@H]1CCn2cc(c3ccccc32)C2=C(C(=O)NC2=O)c2cn(c3ccccc23)CCO1 (drug 10000 nM)", "TARGET SYSTEM": "ZR-75-1", "LABEL CLASS": 2}

Attention now turns to another entry.
Prompt: Class? Entry: CNNCc1ccc(C(=O)NC(C)C)cc1 [Procarbazine] (drug 10000 nM)
Response: 1

###

Test system: T-47D Tam1
Experiment: drug sensitivity score (DSS) (DSS (dimensionless)); higher = more sensitive; extreme values may be limits of the assay
Conditions: 4-OH-tamoxifen in medium 1 µM; 72 h
Listing: drug sensitivity score of selected compounds
Lab note: record just the number, no unit beside it.

Consider the following illustrative entries.
{"COMPOUND": "CCNC(=O)CCC/C=C\\C[C@@H]1[C@@H](/C=C/[C@@H](O)CCc2ccccc2)[C@H](O)C[C@@H]1O [Bimatoprost]", "NUMERIC VALUE": 0}
{"COMPOUND": "CN(C)c1nc(N(C)C)nc(N(C)C)n1 [Altretamine]", "NUMERIC VALUE": 2.61}
{"COMPOUND": "Cc1cccc(-c2nn3c(c2-c2ccnc4ccc(C(N)=O)cc24)CCC3)n1", "NUMERIC VALUE": 0}
{"COMPOUND": "CN(C)CCOc1ccc(/C(=C(/CCCl)c2ccccc2)c2ccccc2)cc1 [Toremifene (citrate)]", "NUMERIC VALUE": 3.53}
{"COMPOUND": "CO[C@H]1/C=C\\C=C(/C)C(=O)NC2=CC(=O)C(NCCN(C)C)=C(C[C@@H](C)C[C@H](OC)[C@H](O)[C@@H](C)/C=C(\\C)[C@@H]1OC(N)=O)C2=O [Alvespimycin (17-DMAG)]", "NUMERIC VALUE": 1.14}
{"COMPOUND": "O=C1c2c(O)ccc(O)c2C(=O)c2c(NCCNCCO)ccc(NCCNCCO)c21 [Mitoxantrone]", "NUMERIC VALUE": 7.08}
{"COMPOUND": "CN(C)C[C@@H]1CCn2cc(c3ccccc32)C2=C(C(=O)NC2=O)c2cn(c3ccccc23)CCO1", "NUMERIC VALUE": 6.85}
{"COMPOUND": "O=C(CCCCCCC(=O)Nc1ccc([C@H]2O[C@@H](CSc3nc(-c4ccccc4)c(-c4ccccc4)o3)C[C@@H](c3ccc(CO)cc3)O2)cc1)NO [Tubacin]", "NUMERIC VALUE": 3.65}
{"COMPOUND": "CCc1c(C(=O)C(N)=O)c2c(OCC(=O)O)cccc2n1Cc1ccccc1 [Varespladib]", "NUMERIC VALUE": 0}
{"COMPOUND": "O=C(/C=C/c1cccc(S(=O)(=O)Nc2ccccc2)c1)NO [Belinostat (PXD101)]", "NUMERIC VALUE": 9.66}

Prompt: Please tell me: drug sensitivity score of CC1(C)CCC(c2ccc(Cl)cc2)=C(CN2CCN(c3ccc(C(=O)NS(=O)(=O)c4ccc(N[C@H](CCN5CCOCC5)CSc5ccccc5)c(S(=O)(=O)C(F)(F)F)c4)cc3)CC2)C1 [Navitoclax (ABT-263)] , system T-47D Tam1?
Response: 14.1

Prompt: Please tell me: drug sensitivity score of Nc1nc(=O)c2c([nH]1)NCC(CNc1ccc(C(=O)N[C@@H](CCC(=O)O)C(=O)O)cc1)N2C=O (mixture of isomers) [Folinic acid] , system T-47D Tam1?
Response: 0

Prompt: Please tell me: drug sensitivity score of Cc1cc(Nc2nc(N[C@@H](C)c3ncc(F)cn3)ncc2Cl)[nH]n1 [AZD1480] , system T-47D Tam1?
Response: 2.6

Prompt: Please tell me: drug sensitivity score of CC(O)(CS(=O)(=O)c1ccc(F)cc1)C(=O)Nc1ccc(C#N)c(C(F)(F)F)c1 (stereo not given) [Bicalutamide] , system T-47D Tam1?
Response: 0

Prompt: Please tell me: drug sensitivity score of COc1cc(CCc2cc(NC(=O)c3ccc(N4CC(C)NC(C)C4)cc3)n[nH]2)cc(OC)c1 (stereo not given) [AZD4547] , system T-47D Tam1?
Response: 0

###

System: T-47D
Experiment: drug sensitivity score (DSS) (DSS (dimensionless)); higher = more sensitive; extreme values may be limits of the assay
Conditions: 4-OH-tamoxifen in medium 0 µM; 72 h
REPORTED PROPERTY: drug sensitivity score
Lab note: record just the number, no unit beside it.

Consider the following illustrative entries.
{"COMPOUND STRUCTURE": "C=CCNC1=C2C[C@@H](C)C[C@H](OC)[C@H](O)[C@@H](C)/C=C(\\C)[C@H](OC(N)=O)[C@@H](OC)/C=C\\C=C(/C)C(=O)NC(=CC1=O)C2=O", "drug sensitivity score": 5.17}
{"COMPOUND STRUCTURE": "O=C1NC(=O)[C@@H](c2cn3c4c(cccc24)CCC3)[C@@H]1c1c[nH]c2ccccc12", "drug sensitivity score": 1.88}
{"COMPOUND STRUCTURE": "O=C(NC[C@H](O)CO)c1ccncc1Nc1ccc(I)cc1F", "drug sensitivity score": 0}

Consider now this further compound.
Prompt: Please tell me: drug sensitivity score of "CC(C)n1cnc2c(NCCc3ccc(O)cc3)nc(-c3csc4ccccc34)nc21" , system T-47D?
Response: 1.21

###

Test system: BT-474
Assay: viability inhibition at highest dose (% inhibition); higher = more growth inhibition
Settings: 4-OH-tamoxifen in medium 1 µM; 72 h
Lab note: compare viability inhibition at highest dose with 50, writing MET if less and NOT MET if equal or more.

Consider the following illustrative entries.
{"COMPOUND": "CNC(=O)c1ccccc1Sc1ccc2c(/C=C/c3ccccn3)n[nH]c2c1 [Axitinib] (drug 10000 nM)", "LABEL CLASS": "MET"}
{"COMPOUND": "CCNC(=O)c1noc(-c2cc(C(C)C)c(O)cc2O)c1-c1ccc(CN2CCOCC2)cc1 [NVP-AUY922] (drug 1000 nM)", "LABEL CLASS": "NOT MET"}

Prompt: In the record for CS(=O)(=O)N1CCN(Cc2cc3nc(-c4cccc5[nH]ncc45)nc(N4CCOCC4)c3s2)CC1 [Pictilisib (GDC-0941)] (drug 10000 nM) , is viability inhibition at highest dose less than 50?
Response: NOT MET

Prompt: In the record for COc1c(C)cnc(Cn2cnc3c(Cl)nc(N)nc32)c1C [BIIB021] (drug 10000 nM) , is viability inhibition at highest dose less than 50?
Response: NOT MET

Prompt: In the record for Cn1c(=O)c(F)c(Nc2ccc(I)cc2F)c2c(=O)n(C[C@@H](O)CO)cnc21 [TAK-733] (drug 1000 nM) , is viability inhibition at highest dose less than 50?
Response: MET

Prompt: In the record for COc1cccc2c1C(=O)c1c(O)c3c(c(O)c1C2=O)C[C@@](O)(C(C)=O)C[C@@H]3O[C@H]1C[C@H](N)[C@H](O)[C@H](C)O1 [Daunorubicin] (drug 1000 nM) , is viability inhibition at highest dose less than 50?
Response: NOT MET

Prompt: In the record for C=CC(=O)N1CCC[C@@H](n2nc(-c3ccc(Oc4ccccc4)cc3)c3c(N)ncnc32)C1 (drug 1000 nM) , is viability inhibition at highest dose less than 50?
Response: NOT MET

Prompt: In the record for CN(C)/N=N/c1[nH]cnc1C(N)=O [Dacarbazine] (drug 10000 nM) , is viability inhibition at highest dose less than 50?
Response: MET

Prompt: In the record for Cc1cc2c(F)c(Oc3ncnn4cc(OC[C@@H](C)O)c(C)c34)ccc2[nH]1 [Brivanib] (drug 1000 nM) , is viability inhibition at highest dose less than 50?
Response: MET

Prompt: In the record for COc1cc(F)c(F)c(Nc2ccc(I)cc2F)c1NS(=O)(=O)C1(C[C@H](O)CO)CC1 [Refametinib (RDEA119)] (drug 10000 nM) , is viability inhibition at highest dose less than 50?
Response: NOT MET
